Target: human PD-L1 / Human PD-1 (Homo sapiens (Human), UniProt Q9NZQ7)
Sequence (Q9NZQ7 19-239): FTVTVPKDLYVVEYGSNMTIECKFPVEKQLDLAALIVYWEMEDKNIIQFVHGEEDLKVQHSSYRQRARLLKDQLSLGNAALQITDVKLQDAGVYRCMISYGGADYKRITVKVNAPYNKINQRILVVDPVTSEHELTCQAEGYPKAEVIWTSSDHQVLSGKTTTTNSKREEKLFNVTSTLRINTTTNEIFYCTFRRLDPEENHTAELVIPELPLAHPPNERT
Experiment: Enzyme-Linked Immunosorbent Assay (ELISA), PD-1/PD-L1 binding
Details: Table 3; plate-coated human PD-L1, biotinylated human PD-1; read-out: ELISA IC50
PROPERTY: IC50

Use these answered entries as a reference point.
COMPOUND	EXPERIMENTAL SYSTEM	IC50
N#Cc1cncc(COc2cc(O[C@H]3CCc4c(-c5ccccc5F)cccc43)c(Cl)cc2CN[C@H](CC(N)=O)C(=O)O)c1	human PD-L1 / Human PD-1 (Homo sapiens (Human), UniProt Q9NZQ7)	< 0.1 µM
Cc1n[nH]c(C)c1CNCc1cc(Cl)c(O[C@H]2CCc3c(-c4ccccc4F)cccc32)cc1OCc1cncc(C#N)c1	human PD-L1 / Human PD-1 (Homo sapiens (Human), UniProt Q9NZQ7)	0.1 to 0.5 µM
COC(=O)Cc1ccccc1-c1cccc2c1CC[C@@H]2Oc1cc(OCc2cncc(C#N)c2)c(CN[C@@H](CO)C(=O)O)cc1Cl	human PD-L1 / Human PD-1 (Homo sapiens (Human), UniProt Q9NZQ7)	0.5 to 20 µM
N#Cc1cncc(COc2cc(O[C@H]3CCc4c(-c5ccccc5F)cccc43)c(Cl)cc2CNCc2c[nH]cn2)c1	human PD-L1 / Human PD-1 (Homo sapiens (Human), UniProt Q9NZQ7)	< 0.1 µM
N#Cc1cncc(COc2cc(O[C@H]3CCc4c(-c5ccccc5F)cccc43)c(Cl)cc2CN2CC(O)C2)c1	human PD-L1 / Human PD-1 (Homo sapiens (Human), UniProt Q9NZQ7)	0.5 to 20 µM

IN: Entry under review: CC(N[C@@H](CO)C(=O)O)c1cc(Cl)c(O[C@H]2CCc3c(-c4ccc(O)cc4)cccc32)cc1OCc1cncc(C#N)c1 (some centres unmarked) . Reported IC50?
OUT: 0.5 to 20 µM

IN: Can you share its IC50? I mean this compound: N#Cc1cc(C#N)cc(COc2cc(O[C@H]3CCc4c(-c5ccc6c(c5F)OCCO6)cccc43)c(Cl)cc2CN[C@@H](CO)C(=O)O)c1
OUT: < 0.1 µM

IN: Which value of IC50 has been reported for N#Cc1cncc(COc2cc(O[C@H]3CCc4c(-c5ccccc5F)cccc43)c(Cl)cc2CN[C@@H](CO)C(=O)NCC(=O)NCC(=O)O)c1 in the records?
OUT: < 0.1 µM

IN: What value of IC50 has been reported for the following compound? C[C@H](NC(=O)[C@H](CO)NCc1cc(Cl)c(O[C@H]2CCc3c(-c4ccccc4F)cccc32)cc1OCc1cncc(C#N)c1)C(=O)O
OUT: < 0.1 µM

IN: What IC50 value was documented for this compound, N#Cc1cncc(COc2cc(O[C@H]3CCc4c(-c5ccc6c(c5F)OCCO6)cccc43)c(Cl)cc2CN[C@H](CO)C(=O)O)c1 ?
OUT: < 0.1 µM

IN: Reported IC50, compound N#Cc1cncc(COc2cc(O[C@H]3CCc4c(-c5ccccc5F)cccc43)c(Cl)cc2CN[C@H]2CCC[C@H](O)C2)c1 : ____
OUT: < 0.1 µM
